Documented cytotoxicity at 10 µM across a set of compounds
Assay: Toxicity liver stage against HepG2, at 10uM
Format: cell-based
Parameters: test concentration 10 uM, cell line HepG2-A16-CD81EGFP
Conditions: human, HepG2-A16-CD81EGFP cells; read-out: INHIBITION

# compound, unitsText, cytotoxicity at 10 µM
data = [
    ("COc1ncc(C2CC(=O)NCc3nc4ccccn4c32)cn1 (centres undefined)", "%", -9.75),
    ("Cc1nc(C)n(CC2CCCCN2CC(=O)NC(C2CC2)C2CC2)n1 (centres undefined)", "%", -8.61),
    ("O=C(COCc1ccco1)Nc1cc(C(F)(F)F)c[nH]c1=O", "%", -2.57),
    ("Cc1cccc(CN2C[C@@H]3C[C@H](C(=O)NCc4cccnc4)[C@H](C2)O3)c1", "%", -5.98),
    ("O=C(NCc1csc(Br)c1)c1ccc(=O)[nH]n1", "%", 1.66),
    ("Cc1ccc(=O)n(CC2(O)CCN(Cc3ccsc3)CC2)n1", "%", 0.642),
    ("CC(C)N1C[C@@H](F)[C@@H](OCc2nc3ncccc3[nH]2)C1", "%", 5.47),
    ("CCSc1cncc(N2CCC(C(=O)NC(C)C(C)C)CC2)n1 (centres undefined)", "%", -1.81),
    ("Cc1nc(C2(NCc3ccc(C#N)cc3F)CCCC2)no1", "%", 2.78),
    ("CC(C)N1CCC2(CC1)CC(NCc1ccccn1)c1ccccc1O2 (centres undefined)", "%", 0.806),
    ("Cc1nnc(NC(=O)NCCCN2CCC(C(N)=O)CC2)s1", "%", 5.61),
    ("c1ccc2c(c1)C(NC1CCCC1)CC21CCNCC1 (centres undefined)", "%", -120),
    ("CCc1nnc(CNC(=O)CCCN2CCCCC2)s1", "%", -15.4),
    ("CS(=O)(=O)N1CCC(CNC(=O)C2CCCC2)CC1", "%", 1.2),
    ("O=C1CCC(C(=O)N2CCOC(Cc3ccc(F)cc3)C2)=NN1 (centres undefined)", "%", -6.26),
    ("CCCN1C[C@H](NC(=O)c2cccs2)[C@@H](c2ccc(OC)cc2)C1", "%", -9.96),
    ("CN(C)CC1CSCCCN1C(=O)c1ccc(-c2ccccc2)cc1 (centres undefined)", "%", 4.54),
    ("Cc1nn(C)c2nc(N3CCC(C(O)c4nccn4C)CC3)sc12 (centres undefined)", "%", 0.79),
    ("CC(Cn1cccn1)NC(=O)Nc1nncs1 (centres undefined)", "%", -1.86),
    ("CN(Cc1ccc(Br)o1)C(=O)Nc1cccnc1", "%", -7.91),
    ("COc1ccc(C)cc1C1(CNc2cn[nH]c(=O)c2Cl)CCOCC1", "%", -6.65),
    ("NCC1CCC(C(NC(=O)c2cccc(F)c2)c2ccccn2)CC1 (centres undefined)", "%", -6.83),
    ("CCN1CCN(CC(C)(O)c2cccc(C(F)(F)F)c2)CC1 (centres undefined)", "%", -11.4),
    ("Cn1ncc2c1CN(Cc1cccnc1)CC2COCC1CC1 (centres undefined)", "%", -10.7),
]

###

Test: Toxicity liver stage against HepG2, at 10uM
Format: cell-based
Set-up: test concentration 10 uM, cell line HepG2-A16-CD81EGFP
Settings: human, HepG2-A16-CD81EGFP cells; read-out: INHIBITION

# compound, cytotoxicity at 10 µM
rows = [
    ("COCC(=O)N1CCCC2(CCN(CCN3CCCC3)CC2)C1", "4.71%"),
    ("CC(C)(C)c1ncc(CNCC2CCCN2c2cccnn2)s1 (stereo unspecified)", "-3.33%"),
    ("COc1ccc(-c2c(C)nn3c(=N)c(C#N)n[nH]c23)cc1OC", "8.29%"),
    ("CCS(=O)(=O)c1ccc2c(c1)OCCCO2", "-2.3%"),
    ("O=C(CCNC(=O)NC1CCN(C2CC2)CC1)NCc1ccccc1", "-0.769%"),
    ("Cc1nn(C)cc1-c1ccnc(N2CCSCC2)n1", "3.47%"),
    ("CC[C@H](Nc1nc(C(C)C)nc2c1cnn2C)c1ccccc1", "-47.5%"),
    ("CC(C)(C)c1noc(-c2ccnc(-n3cnc(C(=O)O)c3)c2)n1", "5.41%"),
    ("O=C1CC(c2ccccc2F)c2c(n(C3CCCC3)[nH]c2=O)N1 (stereo unspecified)", "-5.07%"),
    ("O=C(COc1ccccc1F)N1CCCCC1c1ccn2ccnc2n1 (stereo unspecified)", "-8.52%"),
    ("CC[C@H](C)[C@H](NC(=O)Cn1ccc2ccc(F)cc21)C(=O)OC", "4.12%"),
    ("Cc1ccc(C)c(NC(=O)C(C)N2CCCN(c3nccs3)CC2)c1 (stereo unspecified)", "-19.8%"),
    ("CCc1cc(CN(C)C(=O)c2nnc(CN(C)C)o2)on1", "1.77%"),
    ("Cn1cc(CCCNC(=O)NC2CCN(c3ccccc3)C2=O)cn1 (stereo unspecified)", "6.75%"),
    ("CC(C)O[C@H]1CN(Cc2cnc3c(-c4ccccc4)cnn3c2)C[C@@H]1O", "3.45%"),
    ("CSCC[C@H](NC(=O)CCn1ccc2c(Cl)cccc21)C(=O)O", "2.42%"),
    ("CS(=O)(=O)c1ccc(O[C@H]2COCCN(Cc3ccncc3)C2)cc1", "-5.33%"),
    ("Cn1cc(N2C(=O)CC[C@@H]3[C@H]2CCN3CC2CCOCC2)cn1", "7.86%"),
    ("Cc1ccc(N2CC[C@H]3OCC[C@@]3(C(=O)NC(C)C)C2)nn1", "-11.7%"),
    ("CC(C)CCN1CCN(c2ncnc3nc(N)ccc23)CC1", "11.5%"),
    ("CSc1ccccc1C(=O)Nc1ccc(OC2CCN(C)CC2)cc1", "3.39%"),
    ("COc1c(C2CCCN2C(=O)c2ccoc2)c(C)nn1C (stereo unspecified)", "4%"),
    ("O=C(c1ccco1)N1CCc2ncnc(Oc3cccnc3)c2CC1", "-2.86%"),
    ("Cc1csc(CN2CC[C@H]3C[C@H](c4nc(C)no4)O[C@@H]3C2)n1", "-3.35%"),
    ("O=C(NCC1CCS(=O)(=O)C1)Nc1ccccn1 (stereo unspecified)", "1.54%"),
    ("COC(=O)c1ccc(NC(C)c2ccc3c(c2)CC(=O)N3)nn1 (stereo unspecified)", "3.82%"),
    ("O=C(c1cnc(-c2ncccn2)s1)N1CCCC(n2cccn2)C1 (stereo unspecified)", "-2.85%"),
    ("CCc1nnsc1C(=O)N1CCCC(COc2ccc(F)cc2)C1 (stereo unspecified)", "-155%"),
    ("O=C(NCc1ccccc1)c1nn(C2CCS(=O)(=O)C2)c2c1CCCC2 (stereo unspecified)", "5.92%"),
    ("CN(C)[C@@H]1CCN(C(=O)Cc2ccc(F)cc2)[C@H]1Cc1cnn(C)c1", "4.58%"),
    ("COCCN1CCN(Cc2ccncc2)[C@H]2CS(=O)(=O)C[C@H]21", "-10.2%"),
    ("O=C(c1csc(-c2cccs2)n1)N1CCCC1Cn1cccn1 (stereo unspecified)", "-4.69%"),
    ("CCCS(=O)(=O)N1CCC2(CCN(Cc3cccc(F)c3)C2=O)C1 (stereo unspecified)", "8.07%"),
    ("c1ccc2oc(CN3CCCC3c3noc(C4CC4)n3)nc2c1 (stereo unspecified)", "-4.04%"),
    ("COc1c(F)cc(NC(=O)N2CCC(CSC)C2)cc1F (stereo unspecified)", "10.2%"),
    ("CNc1cc(C)nc(C2CCN(CCO)CC2)n1", "1.56%"),
    ("CC1=C(CCN2C[C@H](O)[C@@H](N3CCOCC3)C2)C(C)(C)CCC1", "-0.128%"),
    ("Cc1nn(C)c(C)c1S(=O)(=O)N1CC[C@H]2O[C@@H](C)C[C@H]2C1", "2.79%"),
    ("O=C(c1cc(Cl)c2c(c1)OCO2)N1CCCC(n2cncn2)C1 (stereo unspecified)", "-8.75%"),
    ("O=C1CC[C@H]2[C@H](CCN2C(=O)N2CCCC2)N1Cc1ccncc1", "-2.04%"),
    ("COCC1c2nnn(CC3CC3)c2CCN1C(=O)c1cc(C)on1 (stereo unspecified)", "-132%"),
    ("COc1ccc(-c2ccnc3nc(N4CCCC4)[nH]c(=O)c23)cc1OC", "9.29%"),
    ("COc1nc(C)c(C(=O)N2CCC(C(O)Cc3ccccc3)CC2)s1 (stereo unspecified)", "4.18%"),
    ("CN(C)c1cncc(C2CCCN(c3cnccn3)C2)n1 (stereo unspecified)", "2.45%"),
    ("CN1CCN([C@@H]2CN(C(=O)c3ccsc3)[C@@H]3CCCO[C@H]23)CC1", "6.74%"),
    ("Cc1noc(-c2cccnc2N2CCOC(C)(c3cnn(C)c3)C2)n1 (stereo unspecified)", "4.08%"),
]

Provenance of the data: ChEMBL document CHEMBL4513216
